Origin of measurements: patent US10035790B2

Molecular target: ligand binding domain of human RORγ (A262-S507) (Homo sapiens)
Construct: made in house; host or cells: E. coli
Experiment: General RORγ SPA binding assay (competition with [3H]25-hydroxycholesterol)
Settings: RORγ SPA binding assay, inhibition of [3H]25-hydroxycholesterol binding; read-out: IC50
Protocol: Example 2 General RORγ SPA Binding Assay The binding of potential ligands to RORγ is measured by competition with [^3H]25-hydroxycholesterol using a scintillation proximity assay (SPA) binding assay. […] The reaction is read on a MicroBeta Trilux scintillation plate reader (Perkin Elmer). IC50 values are determined from the percentage inhibition of [^3H]25-hydroxycholesterol binding.
quantity measured: pIC50
Answers are plain numbers, as −log10 of the molar value.

Use these answered entries as a reference point.
>>> observed("C/C(=N/Oc1cc(C)cc(C)c1)c1cnc(C)nc1C1CCN(C(=O)Cc2c(F)cccc2F)CC1 [Compound B10]")
5.78
>>> observed("Cc1cc(C)cc(CNC(=O)c2cnc(C)nc2C2CCN(C(=O)[C@@H](C)c3ccccc3)CC2)c1 [Compound A26]")
6.35
>>> observed("Cc1cc(C)cc(COC(C)(COC[C@H](O)CO)c2cnc(C)nc2C2CCN(C(=O)Cc3c(F)cccc3F)CC2)c1 (mixture of isomers) [Compound E9]")
8.21

Now let's try a different one.
Prompt line: Find the measured pIC50: item Cc1cc(C)cc(CNC(=O)c2cnc(C)nc2C2CCN(C(=O)Cc3cccc(C)c3)CC2)c1 [Compound A30] , target or system ligand binding domain of human RORγ (A262-S507) (Homo sapiens).
Response line: 5.84

----------
I'd appreciate it if you could supply IC50 values for the items below.
Target: ligand binding domain of human RORγ (A262-S507) (Homo sapiens)
Construct: made in house; host or cells: E. coli
Assay: General RORγ SPA binding assay (competition with [3H]25-hydroxycholesterol)
Details: RORγ SPA binding assay, inhibition of [3H]25-hydroxycholesterol binding; read-out: IC50
Give bare numbers, in nM.

Some solved cases for reference:
>>> observed("Cc1ncc(-c2nnc(-c3ccnc(C(F)(F)F)n3)o2)c(C2CCN(C(=O)Cc3c(F)cccc3F)CC2)n1")
157
>>> observed("Cc1cc(-c2nnc(-c3c(C)nc(C)nc3C3CCN(C(=O)Cc4c(F)cccc4F)CC3)o2)cc(Cl)n1")
269
>>> observed("COc1cccc(CC(=O)N2CCC(c3nc(C)ncc3C(=O)NCc3cc(C)cc(C)c3)CC2)c1")
5450
>>> observed("Cc1ncc(C(C)(C)CNc2ccnc(C(F)(F)F)n2)c(C2CCN(C(=O)Nc3c(F)cccc3F)CC2)n1")
1340
>>> observed("Cc1cc(C)cc(CN(C)C(=O)c2cnc(C)nc2C2CCN(C(=O)Cc3c(F)cccc3F)CC2)c1")
338

Items follow; give IC50 for each.
1. C/C(=N\Oc1cc(C)nc(C(F)(F)F)n1)c1cnc(C)nc1C1CCN(C(=O)Nc2c(F)cccc2F)CC1
2. CC(=O)NCC(O)(COc1cccc(C(F)(F)F)n1)c1cnc(C)nc1C1CCN(C(=O)Oc2ccccc2F)CC1 (stereo not shown)
3. CN(C)CCNc1ncc(C(=O)NCc2cccc(Cl)c2)c(C2CCN(C(=O)Cc3c(F)cccc3F)CC2)n1
4. COc1ncc(C(C)(O)COc2cccc(C(F)(F)F)n2)c(C2CCN(C(=O)Nc3c(F)cccc3F)CC2)n1 (stereo not shown)
5. Cc1nc(C)c(-c2nnc(-c3ccnc(C(F)(F)F)n3)o2)c(C2CCN(C(=O)Cc3ccccc3Cl)CC2)n1

Response line:
1. 151
2. 9.2
3. 290
4. 3.4
5. 20.5

Fill in IC50 for each of the 7 compounds listed.
1. Cc1nc(C)c(-c2nnc(-c3ccnc(C(F)(F)F)n3)o2)c(C2CCN(C(=O)Nc3ccccc3Cl)CC2)n1
2. Cc1nc(C)c(C(=O)NNc2cccc(Cl)c2)c(C2CCN(C(=O)Cc3c(F)cccc3F)CC2)n1
3. Cc1ncc(C(=O)NCc2ccc(C(F)(F)F)nc2)c(C2CCN(C(=O)Cc3c(F)cccc3F)CC2)n1
4. C/C(=N/Oc1cccc(OC(F)(F)F)c1)c1cnc(C)nc1C1CCN(C(=O)Cc2c(F)cccc2F)CC1
5. Cc1ncc(C(=O)NCCOc2ccccc2)c(C2CCN(C(=O)Cc3c(F)cccc3F)CC2)n1
6. COC(=O)C(NC(=O)c1cnc(C)nc1C1CCN(C(=O)Cc2c(F)cccc2F)CC1)c1cccc(Cl)c1 (stereo not shown)
7. Cc1ncc(C(C)(O)CNc2ccnc(C(F)(F)F)n2)c(C2CCN(C(=O)Nc3c(F)cccc3C(F)(F)F)CC2)n1 (stereo not shown)

Response line:
158
12.1
619
1500
158
750
112

Kindly give each listed record's IC50.
1. CCNC(=O)NCC(O)(COc1cccc(C(F)(F)F)n1)c1cnc(C)nc1C1CCN(C(=O)Nc2c(F)cccc2F)CC1 (stereo not shown)
2. [2H]C([2H])(C(=O)N1CCC(c2nc(C)nc(C)c2-c2nnc(-c3ccnc(C(F)(F)F)n3)o2)CC1)c1c(F)cccc1F
3. CCNc1ncc(C(=O)NCc2cccc(Cl)c2)c(C2CCN(C(=O)Cc3c(F)cccc3F)CC2)n1
4. Cc1cc(C)cc(CNC(=O)c2cnc(C)nc2C2(F)CCN(C(=O)Cc3c(F)cccc3F)CC2)c1

Response line:
[47.8, 8, 6.7, 551]

Required: IC50, one value per compound below.
1. Cc1nc(C)c(C(=O)NCc2ccnc(C(F)(F)F)n2)c(C2CCN(C(=O)Cc3c(F)cccc3F)CC2)n1
2. Cc1cc(C)cc(CCC(C)(O)c2cnc(C)nc2C2CCN(C(=O)Cc3c(F)cccc3F)CC2)c1 (stereo not shown)
3. CC(O)(COc1ccnc(C(F)(F)F)n1)c1cnc(OCCF)nc1C1CCN(C(=O)Nc2c(F)cccc2F)CC1 (stereo not shown)
4. Cc1cc(CNC(=O)c2cnc(C)nc2C2CCN(C(=O)Cc3c(F)cccc3F)CC2)cc(C)n1
5. Cc1ncc(C(C)(O)CNc2nccc(C(F)(F)F)n2)c(C2CCN(C(=O)Nc3c(F)cccc3C(F)(F)F)CC2)n1 (stereo not shown)

Response line:
1: 58.4; 2: 33.9; 3: 22; 4: 426; 5: 76.1

Working through the 2 compounds below one at a time, give IC50 for each.
1. Cc1nc(C)c(C(O)COc2cccc(C(F)(F)F)n2)c(C2CCN(C(=O)Nc3c(F)cccc3F)CC2)n1 (stereo not shown)
2. Cc1ncc(C(C)(C)OCc2cccc(Cl)c2)c(C2CCN(C(=O)Cc3c(F)cccc3F)CC2)n1

Response line:
4
45.7

----------
Target: ligand binding domain of human RORγ (A262-S507) (Homo sapiens, UniProt P51449)
Construct: made in house; host or cells: E. coli
Sequence (P51449 262-507): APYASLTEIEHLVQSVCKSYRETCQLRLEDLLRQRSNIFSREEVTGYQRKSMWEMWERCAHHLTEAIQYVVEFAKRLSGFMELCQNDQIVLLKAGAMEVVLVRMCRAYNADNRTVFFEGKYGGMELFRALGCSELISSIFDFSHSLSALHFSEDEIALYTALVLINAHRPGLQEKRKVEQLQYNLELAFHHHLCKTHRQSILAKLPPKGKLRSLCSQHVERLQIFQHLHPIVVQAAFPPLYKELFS
Assay: General RORγ SPA binding assay (competition with [3H]25-hydroxycholesterol)
Details: RORγ SPA binding assay, inhibition of [3H]25-hydroxycholesterol binding; read-out: IC50
quantity measured: IC50
Number plus unit, in that order.

>>> observed("Cc1ncc(C(O)(CNC(=O)CCO)COc2cccc(C(F)(F)F)n2)c(C2CCN(C(=O)Nc3c(F)cccc3F)CC2)n1 (stereo not shown)")
"183 nM"
>>> observed("Cc1ncc(C(C)(F)COc2cccc(C(F)(F)F)n2)c(C2CCN(C(=O)Nc3c(F)cccc3F)CC2)n1 (stereo not shown)")
"11 nM"
>>> observed("CC(C)Nc1ncc(C(=O)NCc2cccc(Cl)c2)c(C2CCN(C(=O)Cc3c(F)cccc3F)CC2)n1")
"25.4 nM"

# context switch: different compound, same IC50
Prompt line: For ligand binding domain of human RORγ (A262-S507) (Homo sapiens, UniProt P51449), provide IC50 of Cc1cc(C)cc(CNC(=O)c2cnc(C)nc2C2CCN(C(=O)C3(c4ccccc4)CC3)CC2)c1 please.
Response line: 1690 nM

----------
Target: ligand binding domain of human RORγ (A262-S507) (Homo sapiens, UniProt P51449)
Construct: made in house; host or cells: E. coli
Assay: General RORγ SPA binding assay (competition with [3H]25-hydroxycholesterol)
Settings: RORγ SPA binding assay, inhibition of [3H]25-hydroxycholesterol binding; read-out: IC50
Exercise: state measured log10(IC50) for each of the compounds provided.
Field: value | Transform: log10 | Quantity: IC50 | Unit: nM

Example results:
>>> observed("Cc1cc(C(F)(F)F)nc(CNC(=O)c2cnc(C)nc2C2CCN(C(=O)Cc3c(F)cccc3F)CC2)n1")
1.93
>>> observed("Cc1ncc(C(=O)NCc2cccc(Cl)c2C)c(C2CCN(C(=O)Cc3c(F)cccc3F)CC2)n1")
1.80
>>> observed("C/C(=N\\Oc1ccnc(C(F)(F)F)n1)c1cnc(C)nc1C1CCN(C(=O)Nc2c(F)cccc2C(F)(F)F)CC1")
1.97
>>> observed("CCNc1ncc(C(C)(O)COc2ccnc(C(F)(F)F)n2)c(C2CCN(C(=O)Nc3c(F)cccc3F)CC2)n1 (stereo not shown)")
1.17
>>> observed("Cc1cc(C)cc(CNC(=O)c2cnc(C)nc2C2CCN(C(=O)[C@H](C)c3ccccc3)CC2)c1")
1.95

Record log10(IC50) for all entries; do not skip any.
1. Nc1ncc(C(=O)NCc2cccc(Cl)c2)c(C2CCN(C(=O)Cc3c(F)cccc3F)CC2)n1
2. Cc1ncc(C(F)(F)COc2cccc(C(F)(F)F)n2)c(C2CCN(C(=O)Nc3c(F)cccc3F)CC2)n1

Response line:
[0.76, 0.61]
